Biological target: GST-cGB-PDE5 fusion protein (Homo sapiens, UniProt O76074)
Sequence (O76074 46-539 limits assumed): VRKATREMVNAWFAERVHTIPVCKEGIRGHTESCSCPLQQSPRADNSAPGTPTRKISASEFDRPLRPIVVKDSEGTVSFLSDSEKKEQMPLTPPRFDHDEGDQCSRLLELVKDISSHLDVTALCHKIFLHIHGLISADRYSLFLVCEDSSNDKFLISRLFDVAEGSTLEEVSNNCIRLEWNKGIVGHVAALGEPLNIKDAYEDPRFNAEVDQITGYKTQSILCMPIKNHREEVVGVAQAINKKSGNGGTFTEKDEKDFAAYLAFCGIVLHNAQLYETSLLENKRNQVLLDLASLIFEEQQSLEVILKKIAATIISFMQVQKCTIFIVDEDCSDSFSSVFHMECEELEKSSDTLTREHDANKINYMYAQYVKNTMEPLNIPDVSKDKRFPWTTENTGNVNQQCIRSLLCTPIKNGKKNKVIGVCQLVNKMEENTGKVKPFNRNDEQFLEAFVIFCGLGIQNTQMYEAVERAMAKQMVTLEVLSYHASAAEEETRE
Test: cGMP binding assay with GST-cGB-PDE5 fusion protein
Conditions: read-out: Kd of cGMP binding; two cGMP binding sites
outcome-measure: pKd
Kindly note that pKd refers to -log10 of the concentration in mol/L and answer with the value alone.

I'd like to know its pKd. The molecule in question is Nc1nc2c(ncn2[C@@H]2O[C@@H]3COP(=O)(O)O[C@H]3[C@H]2O)c(=O)[nH]1 [cGMP, cyclic 3′,5′-guanosine monophosphate]
5.80
